# Test system: HS 578T breast
# assay.name: NCI-60 one-dose screen, 48 h
# assay.conditions: 10 µM unless noted
This is part of a sample that, as a whole, favours compounds with a hit. Of some 83,000 tested, about 20% had one in any assay. Calls of active or inactive are those of the source. How the source made its calls: active means growth percent below 10; inactive means the rest.
Give your call using only these classes: active, inactive

# outcome recorded in this test, key = `COc1ccc([C@@H]2[C@@H](O)C(=O)N2c2cc(OC)c(OC)c(OC)c2)cc1`
inactive

# outcome recorded in this test, key = `O=c1cc(-c2ccccc2)nc2sc(-c3c[nH]c4ccc(Br)cc34)nn12`
inactive

# outcome recorded in this test, key = `COc1ccc(CN2C(=O)/C(=C/c3nc(CO)cs3)SC2=S)cc1`
inactive

# outcome recorded in this test, key = `CS(=O)(=O)c1nccc(-c2c(-c3ccc(F)c(OCCc4ccc(F)cc4)c3)nc3sccn23)n1`
inactive

# outcome recorded in this test, key = `O=S(=O)(Nc1ccc(-c2nc(-c3cccc(O)c3)c(-c3ccnc(Br)c3)[nH]2)cc1)c1ccccc1`
active

# outcome recorded in this test, key = `COc1ccc([C@H]2[C@H](O)C(=O)N2c2cc(OC)c(OC)c(OC)c2)cc1Cl`
inactive

====

# Test system: MOLT-4 leukemia
# assay.name: NCI-60 one-dose screen, 48 h (100 = growth as untreated, 0 = no growth, -100 = all killed)
# assay.conditions: 10 µM unless noted
# Procedure: Growth inhibition of the MOLT-4 human tumor cell line is measured as a screen for anti-cancer activity. Cells are grown in 96 well plates and exposed to the test compound for 48 hours. Compounds are tested at a single concentration, which is 10^-5 M for most compounds. The reported endpoint is percent growth (GI% or GIPRCNT), where numbers from 0 - 100% represent growth inhibition, and numbers from -100% - 0 represent cell death. For example, a value of 40 represents 60% growth inhibition. […]
This is part of a sample that, as a whole, favours compounds with a hit. Of some 83,000 tested, about 20% had one in any assay.
measure.name: growth (%)
All answers are understood in %, so give the number only.

Any idea what its growth is? The compound is `O=S(=O)(Nc1ccc2c(c1)OC(F)(F)O2)c1ccc(-c2cnc(C3CC3)o2)cc1`
30.3

Any idea what its growth is? The compound is `CN1CCN(c2ccc(C(=O)Nc3cccc(-c4cn(-c5ccc(S(N)(=O)=O)cc5)nn4)c3)cc2C(F)(F)F)CC1`
13.2

Any idea what its growth is? The compound is `C#C[C@]1(O)CC[C@H]2[C@@H]3CC=C4c5sc(Nc6cc(Cl)ccn6)nc5CC[C@]4(C)[C@H]3CC[C@@]21C`
4.35

Any idea what its growth is? The compound is `C=C(C)[C@@H]1CC[C@]2(C)[C@H](CC=C3[C@@H]4CC(C)(C)CC[C@]4(C(=O)NCC#CCN4CCN(C)CC4)CC[C@]32C)[C@@]1(C)CCC#N`
19

Any idea what its growth is? The compound is `O=C(O)CNS(=O)(=O)c1ccc(Oc2ccc(S(=O)(=O)NCC(=O)O)cc2)cc1`
95.7

Any idea what its growth is? The compound is `O=C1Nc2cc(OC(F)(F)F)ccc2Oc2ccc(-c3ccnc(N4CCNCC4)c3)cc21`
-0.166

Any idea what its growth is? The compound is CCOC(=O)/C(F)=C/C1CC1C1CCCCC1 (stereo not drawn)
102

Any idea what its growth is? The compound is `O=C(Nc1cccc(Cl)c1)Nc1nc2ccc([N+](=O)[O-])cc2s1`
2.36

Any idea what its growth is? The compound is `CC(C)=CCc1c(O)c(CC=C(C)C)c2c(c1O)C(=O)C1=C[C@@H]3C[C@H]4C(C)(C)O[C@@](C/C=C(\C)C(=O)O)(C3=O)[C@@]14O2`
1.93

Any idea what its growth is? The compound is `Oc1ccc(CSc2nnc(-c3ccc(Oc4ccccc4)cc3)o2)c2cccnc12`
26.9

Any idea what its growth is? The compound is `C=C(C)C(=O)O[C@H]1C[C@@]2(C)OC(=CC2=O)/C(CO)=C\[C@H]2OC(=O)C(=C)[C@H]12`
-28

Any idea what its growth is? The compound is CCOC(=O)C1=C(C)N=C2Sc3ccccc3N2C1c1ccccc1 (stereo not drawn)
87.2

Any idea what its growth is? The compound is CC1CCc2c(sc3nc(SCC(=O)N/N=C/c4ccc(Cl)cc4)n(-c4ccccc4)c(=O)c23)C1 (stereo not drawn)
110

====

# Test system: SW-620 colon
# assay.name: NCI-60 one-dose screen, 48 h (100 = growth as untreated, 0 = no growth, -100 = all killed)
# assay.conditions: 10 µM unless noted
About 83,000 compounds went through this panel and 20% of them were active in at least one assay; those are over-represented in the sample as a whole. Active and inactive are the calls of the source. The calls were made as follows: active = growth percent below 10; inactive = the rest.
measure.name: growth

Any idea what its growth is? The molecule is COc1ccccc1/C=C/C=N/NC1=NC2C(S1)N(C)C(=O)N2c1ccccc1 (configuration not stated)
17.7% (inactive)

Any idea what its growth is? The molecule is `COc1ccc(C(=O)n2cc(C=O)c3ccccc32)cc1`
90% (inactive)

Any idea what its growth is? The molecule is `C=C(C)[C@@H]1CC[C@]2(C)[C@H](CC=C3[C@@H]4CC(C)(C)CC[C@]4(C(=O)NCC#CCN4CCN(C)CC4)CC[C@]32C)[C@@]1(C)CCC#N`
43.8% (inactive)

Any idea what its growth is? The molecule is `C=CCn1c(SCC(=O)Nc2cccc(C(=O)/C=C/c3cc(OC)c(OC)c(OC)c3)c2)nc2ccccc2c1=O`
3.18% (active)

Any idea what its growth is? The molecule is `CCCCOc1ccc(S(=O)(=O)N2CCN(c3nccc(N4CCOCC4)n3)CC2)cc1`
34.8% (inactive)

Any idea what its growth is? The molecule is `CCCCSc1nnc(-c2ccc(-c3ccc(Cl)cc3)nc2C)o1`
101% (inactive)

Any idea what its growth is? The molecule is CCCC(=O)NC(c1cccnc1)c1ccc2c(C)ccnc2c1O (configuration not stated)
28.6% (inactive)

Any idea what its growth is? The molecule is `O=c1[nH]c(CCl)nc2c1cnn2-c1ccccc1`
102% (inactive)

Any idea what its growth is? The molecule is CCC(C)[C@H]1OC(=O)[C@H](C(C)C)N(C)C(=O)[C@@H](C(C)C)OC(=O)[C@H](C(C)C)N(C)C(=O)[C@@H](C(C)CC)OC(=O)[C@H](C(C)C)N(C)C1=O (some centres not stated)
17.3% (inactive)

Any idea what its growth is? The molecule is `C=C(C)[C@@H]1CC[C@]2(COS(C)(=O)=O)CC[C@]3(C)[C@H](CC[C@@H]4[C@@]5(C)CCCNC(C)(C)[C@@H]5CC[C@]43C)[C@@H]12`
4.87% (active)

Any idea what its growth is? The molecule is `CC(=O)C1=NN(c2ccc(Cl)cc2)C(=O)CN1C`
106% (inactive)

Any idea what its growth is? The molecule is `Fc1ccccc1/C=C(/C1=NCCN1)n1cnc2ccccc21`
101% (inactive)

Any idea what its growth is? The molecule is `CN1CCN(c2nc(-c3csc(-c4ccncc4)n3)cc3ccccc23)CC1`
74.2% (inactive)

Any idea what its growth is? The molecule is `CC(C)(C)OC(=O)N1CCN(S(=O)(=O)/N=C2\NC(=O)NC2=C(Cl)Cl)CC1`
34.3% (inactive)

Any idea what its growth is? The molecule is `COc1ccc(/C(C)=C(\c2ccc(Cl)cc2)c2ccc(OCCN)cc2)cc1`
36.4% (inactive)

Any idea what its growth is? The molecule is `O=C(Nc1cc(Cl)cc(Cl)c1)Nc1ccc2oc(=O)ccc2c1`
17.3% (inactive)

Any idea what its growth is? The molecule is `Nc1ccc(-c2nnc(SCc3ccc(O)c4ncccc34)o2)cc1`
5.51% (active)

Any idea what its growth is? The molecule is `Clc1ccc(-c2csc(Nc3cccc(Nc4csc(-c5ccc(Cl)cc5)n4)c3)n2)cc1`
86.6% (inactive)

Any idea what its growth is? The molecule is `C=C(C)C(=O)O[C@H]1C[C@@]2(C)OC(=CC2=O)/C(CO)=C\[C@H]2OC(=O)C(=C)[C@H]12`
-61.3% (active)

Any idea what its growth is? The molecule is CCCC(=O)NC(c1cccnc1)c1cc(Cl)c2cccnc2c1O (configuration not stated)
26% (inactive)

Any idea what its growth is? The molecule is `Nc1cc(F)ccc1NC(=O)c1ccc(NC(=O)C/C=C/c2cccnc2)cn1`
10.6% (inactive)

Any idea what its growth is? The molecule is `Oc1ccccc1-c1nnc(SCc2ccc(O)c3ncccc23)o1`
28.2% (inactive)

====

# Tested on: NCI-H322M lung
# assay.name: NCI-60 one-dose screen, 48 h (100 = growth as untreated, 0 = no growth, -100 = all killed)
# assay.conditions: 10 µM unless noted
The panel holds about 83,000 compounds, 20% with a hit somewhere; the sample as a whole holds those more often.
measure.name: growth (%)
All answers are understood in %, so give the number only.

Any idea what its growth is? The compound is CCC(CC)N1C(=O)/C(=c2\sc3n(c2=O)C2C(NN=3)N(CC)C(=O)N2CC)c2ccccc21 (stereo not drawn)
61

Any idea what its growth is? The compound is COC[C@@]1(C)CC[C@]2(C)CC[C@]3(C)C(=CC[C@@H]4[C@@]5(C)CCCNC(C)(C)[C@@H]5CC[C@]43C)C2C1 (stereo partly drawn)
89.4

Any idea what its growth is? The compound is `O=C(C[n+]1ccnc2ccccc21)c1ccc(O)c(O)c1`
90.8

The measured values listed here are drawn from PubChem BioAssay (NCI).
